Cited source: the supplement of paper PMC9170038

Tested on: MS2 coat protein
method_description: apparent KD of MS2 coat protein; designed switch direction (-1 OFF switch, 1 ON switch): 1; higher = weaker reporter binding
cond: input ligand: FMN 200 uM
value_type: apparent KD of MS2 coat protein (µM)
Only the number, expressed in µM, is required.

Worked examples, 5 sequences total:
1) CCGGGUAAUGGAGGAUAUGGAGCCUUAUUGGCUCCAGAAGGCUAACAUGAGGAUCACCCAUGUAGUCCGGCGGUCAAUAGACCG [Eli NG1ss - 66] (Eterna round: R96, puzzle: Same State NG 1)    0.0105
2) AUUAAUUAUGCAGGAUAUGAUUAACAUGAGGAUCACCCAUGUGGUGUUGUGAGUAAGGAGAGUGAUCAGAAGGGCAUUUUUUUU [JMF's solution 66] (Eterna round: R96, puzzle: Same State NG 2)    0.652
3) AGCUAGUACCGAGGAUAUACGAACAUGAGGAUCACCCAUGUAUACAUGGUUUAAUGAGACUACAUGUAGAAGGCGGUACUAGCA [SameState NG2 #11] (Eterna round: R96, puzzle: Same State NG 2)    1.11
4) GAUCGUUUGAUAGGAUAUCGCUAUACAUGAGGAUCACCCAUGUUUACCACGCUGGUUUUUCGUACCGAGAAGGAUUCUGAUGAU [JL JR sub007 mod 5] (Eterna round: R96, puzzle: Same State NG 2)    0.0314
5) CUGUAUCACGGAGGAUAUGGGCUGAGACCAGGGCAACCCUGGUCAACAUGAGGAUCACCCAUGUCCCAGAAGGCCGCGAUGCUA [Geisorqu] (Eterna round: R96, puzzle: Same State NG 2)    0.0238

Query: Need apparent KD of MS2 coat protein of GUUACAUGAGGAUCACCCAUGUAUGUGUGGGAGUAAGUGUCUUAGGAUAUCUAUCAUUUAAAUUAAGAGAAGGAAGAUUGUUGU [JMF's solution 12] (Eterna round: R96, puzzle: Same State NG 3) , thanks.
Result: 0.126

Query: Same question for GGAAAGAGGUUAGGAUAUGCAUGUUUGGGACAUGAGGAUCACCCAUGUAAUAGAAGAAAUCUACAGUAGAAGGGACAAGGAAGG [AK SSNG2-V2-6.1] (Eterna round: R96, puzzle: Same State NG 2) please.
Result: 0.152

Query: Same question for GCUAGUAUUAUUGCUAACAUGAGGAUCACCCAUGUAUGUUGGCAGGAUAUCGUUUGCAAAGCAAACGAGAAGGGCUAAACUAGC [Mat - Same State NG 3 - JL Mod - D13] (Eterna round: R96, puzzle: Same State NG 3) please.
Result: 0.0277

Query: Same question for AAACAUGAGGAUCACCCAUGUCGAUUAAAACCCUAAUCUACUCAGGAUAUCCGAAUGCGCGUUUCGGAGAAGGGAGAAAUGUGA [Isessoreri] (Eterna round: R96, puzzle: Same State NG 3) please.
Result: 0.027

----------
Readings of apparent KD of MS2 coat protein for the listed sequences
Test system: MS2 coat protein
method_description: apparent KD of MS2 coat protein; designed switch direction (-1 OFF switch, 1 ON switch): -1; higher = weaker reporter binding
cond: input ligand: FMN 200 uM
Only the number, expressed in nM, is required.

Worked examples, 10 sequences total:
1. CCUAUGUUAGGAUAUCUAGUAAGAGGCCCAUAGGGCCGUGCAGAGAAGGGACAUGAGGAUCACCCAUGUGUCAC [Eternabot (L1) Solution 86] (Eterna round: R97, puzzle: Exclusion 4)    26.7
2. GGCAAAUUUGUAAGGAUAUUGAGCAGCGAAGAGCUCGAGAAGGUACAUGAGGAUCACCCAUGUUUCUCAGACGC [Eternabot (Original) Solution 49] (Eterna round: R97, puzzle: Brourd's mod of Exclusion 4)    43.4
3. ACAAGCUUAAAAAUCCUAAACAUGAGGAUCACCCAUGUUCGUCUUAUAAAAAUAAAAAUAAAAAAUAAAAAAUAAAA [Sensor V2: 70] (Eterna round: R96, puzzle: Sensor v2, turn-off variant)    49.1
4. GUCAUCACACAUGGGAUCAACAUGAGGAUCACCCAUGUUGCCAAGUUGUUUGCACGUCUUAUAAUACGUUUUUCGAG [Mod-Jxg] (Eterna round: R97, puzzle: Sensor, turn-off variant 1)    21.6
5. UAUUAUCAAGCAAGAUCCCACAUGAGGAUCACCCAUGUGCUCGUCUUAUUUCCGGCCUUAUUGGGCUCUCGUCUAAU [JR_STOV1_v2_Sub094] (Eterna round: R97, puzzle: Sensor, turn-off variant 1)    34
6. UAUGACUGAGGAUAUUGUACUGCUGACAUGAGGAUCACCCAUGUAUGCUAACUCGGCCGUCGAGAAGGCAGUUAUG [BotMod 26 - Jieux - Exclusion 5] (Eterna round: R97, puzzle: Exclusion 5)    16.5
7. CAGUACUGAGGAUAUACAUGAGGAUCACCCAUGUCCUUCAGCUAGGAAACUAGCGAAAGUAGAAGGCAGUACUG [Eli x3 4.001] (Eterna round: R97, puzzle: Exclusion 3)    366
8. UGACCUUUUGUCAGGAUAUAUAUACGUGUUGGUAGGUAGAAGGGACAUGAGGAUCACCCAUGUGGUUUGAGCUA [Eternabot (L1) Solution 74] (Eterna round: R97, puzzle: Brourd's mod of Exclusion 4)    433
9. GCACGGAGUGUAGGAUAUCUGUGCGAUUAGCUCAGAGAAGGACACAUGAGGAUCACCCAUGUGUAACUCAAUACUAAUCCGUGC [Eli exng1 - 077] (Eterna round: R96, puzzle: Exclusion NG 1)    10.6
10. CUCUGUGCAAAGGAUAUGUGAACAGGUCUAAUAACAGAAGGUUGCACUUGAGGAUCACCCAAGUUAAAGGGACC [Ortebi] (Eterna round: R97, puzzle: Exclusion 6)    517

Query: Need apparent KD of MS2 coat protein of AUCCCUUGAGUAAGGAUAUGGCCAGGGAGGUCUGGCCAGAAGGUACAUGAGGAUCACCCAUGUAGGUUGUCGCA [Eternabot (L2) Solution 44] (Eterna round: R97, puzzle: Brourd's mod of Exclusion 4) , thanks.
Result: 56

Query: Same question for AGUUGUUGCGUAGGAUAUGAGGAUCACCCAUAGUAGGAUAACGAAAGUGAAGGACUGAGGAUUACCCAGAAGGACGUGAUGACA [pwkr exNG2 2xF5 2xFMN.6] (Eterna round: R96, puzzle: Exclusion NG 2) please.
Result: 602

----------
Tested on: MS2 coat protein
method_description: apparent KD of MS2 coat protein; designed switch direction (-1 OFF switch, 1 ON switch): -1; higher = weaker reporter binding
cond: input ligand: none
Parameter threshold = 40 nM. Response is Criterion met when apparent KD of MS2 coat protein meets or exceeds it, else Criterion not met.

Example results:
1. GGUCCUGAUGAUUUUCUAUACAUGAGGAUCACCCAUGUAUGUUUAUUUUGUUUUUCGCUUUUUGGUCGUCAAUAAUA [Honey] (Eterna round: R97, puzzle: Sensor, turn-off variant 1)    Criterion met
2. ACUGGUGCAGGAUAUGCAAUCGUGCUUCGGCACGUAAGGUCACAUGAGGAUCACCCAUGUAGAAGGGCACCAGU [E2/4-D1] (Eterna round: R97, puzzle: Exclusion 2)    Criterion not met
3. CUUGUUUAUGUAGGAUAUGCCUGGCGUGCCUUUGCAGAAGGACAUGAGGAUCACCCAUGUACAUGAGGAUCACCCAUGUUCGCA [salish99_ExNG1_r04_102] (Eterna round: R96, puzzle: Exclusion NG 1)    Criterion met

Now let's try a different one.
Query: hey, is apparent KD of MS2 coat protein for this one >= 40 nM? CUUAUGUCAGGAUAUUAGUAGUAAAUAAAUAAAAUUAUUACUGAGAAGGGACAUGAGGAUCACCCAUGUUCCUC [Salish 062 v4] (Eterna round: R97, puzzle: Exclusion 4)
Result: Criterion not met

----------
Tested on: MS2 coat protein
method_description: apparent KD of MS2 coat protein; designed switch direction (-1 OFF switch, 1 ON switch): 1; higher = weaker reporter binding
cond: Eterna round: R95; input ligand: none
Readings of apparent KD of MS2 coat protein for the listed sequences
Only the number, expressed in nM, is required.

Worked examples, 8 sequences total:
1) GGAGCCGGCACUGAGGAUAUUCGUAUUAAAACAUGAGGAUCACCCAUGUAGGCCAGAAGGCCUUGGGAGAAGGCAGGUCGACUCG [Diqureveri - 2] (puzzle: Same State 2)    59.7
2) ACAAGCUUUUUGCUCCUCUUAUGUCCGAAACAUGAGGAUCACCCAUGUAUAGAUUGUGUGUUGUUGUAGAUGCAAGA [JR_SHM208A_Sub061] (puzzle: Sensor for hsa-mir-208a)    71.8
3) CGUCCAGCCUGAGCUGGACAAAAGCAUGUACAUGAGGAUCACCCAUGUUCAUGUACAAGCUUUUUGCUCGUCUUACC [salish99_208a_r3_094x] (puzzle: Sensor for hsa-mir-208a)    1010
4) AGUGAAGAAGCUGAGGAUAUCGUAAGGAGGACAUGAGGAUCACCCAUGUGUGUGGAAUUGGAGGACGAGAAGGCAGAGGAGUGGG [JR_SS2_Sub057] (puzzle: Same State 2)    22.7
5) AAUUCACGAGCACAGGAUAUGCUUGCCAACACAUGAGGAUCACCCAUGUCGGGCUACGAAUAAGAGCAGAAGGGUGACUCAUGAU [Atesusgela] (puzzle: Same State 2)    13.9
6) AGUCCAGCCUGAGCUGGACAAAAGCAUGUACAUGAGGAUCACCCAUGUCAUGUACAGGCUUUUUGCUCGUCUUAAAA [Zipper 46 - 8] (puzzle: Sensor for hsa-mir-208a)    300
7) UCUUGGUUUUUGCUCGUUUUUUGUGUUGAACAUGAGGAUCACCCAUGUAUUGUACGGUCCAGUUUGGUAAUGGUCCA [JMF 8] (puzzle: Sensor for hsa-mir-208a)    35
8) GGGCCAGCCUGUGCUGGGCUUUAGCAUGUACAUGAGGAUCACCCAUGUCGUGUACAUGCUUUUUGCUCGUCUUUAAA [Photon Torp-07] (puzzle: Sensor for hsa-mir-208a)    100

Query: Need apparent KD of MS2 coat protein of CUGUCUACAGGUGUCUUUGCUCGUUUUAUACAUGAGGAUCACCCAUGUUGUAGCCCGGUGCUUGCGCUGGGCUGGUU [JL ViennaUCT Tearor mod 9] (puzzle: Sensor for hsa-mir-208a) , thanks.
Result: 72.7

Query: Same question for AGUCCAGCCUGAGCUGGACAAAAGCAUGUACAUGAGGAUCACCCAUGUCAUGUACAAGCUUUUUGCUCGUCUUAUAA [Mat - hsa-mir-208a - Mod of JL - D25] (puzzle: Sensor for hsa-mir-208a) please.
Result: 704

Query: Same question for AACACACAUGAGGAUCACCCAUGUACCGAAAUCACAGGAUAUACAUAACUGAAUAACAUUGUAGAAGGGUGGCCGG [Enorerteso] (puzzle: Same State 1) please.
Result: 91.4

Query: Same question for UCUUGGUUUUUGCUCGUUUUUUGUGUUGAACAUGAGGAUCACCCAUGUAUUGUACGGUCCAAUUUAGUAAUGGUCCG [JMF 26] (puzzle: Sensor for hsa-mir-208a) please.
Result: 23.6

Query: Same question for GAGAGACAUGAGGAUCACCCAUGUAGAAUAGAACAAGGAUAUGUGGAAGGCGGAGGAGAGACAGAAGGUGUAGGAA [JR_SS1_Sub054] (puzzle: Same State 1) please.
Result: 84.9

Query: Same question for AUCCUACAUGAGGAUCACCCAUGUGAAGCCUCAAUAGGAUAUGCGUGUGCCUUGGCGCAUGCAGAAGGAUUGAAGC [JL Aveso mod 3] (puzzle: Same State 1) please.
Result: 967

Query: Same question for AUAAGUUUGAUGCUCGUCUCUCCGUACAGACAUGAGGAUCACCCAUGUAGUCGGGCAGUAGCCCGGCCAGUAUGGCC [Raatbeor] (puzzle: Sensor for hsa-mir-208a) please.
Result: 119

Query: Same question for UCUUGGUUUUUGCUCGUUUUUUGUGUUGAACAUGAGGAUCACCCAUGUAUUGUACGGUCCGAUUUGAUGAUGGUCCA [JMF 42] (puzzle: Sensor for hsa-mir-208a) please.
Result: 35.1
